- Species on record: Rattus norvegicus
- assay-summary: DrugMatrix - Regimen: Daily Repeat
- Format: toxicity, organism-based, Sprague-Dawley
- Set-up: regimen Daily Repeat, gender Male, age 6-8 weeks
- experimental-setup: in vivo, po, 0 mg/kg, 72 h, tissue Plasma, route oral GAVAGE, dose level Control, time 3 day, vehicle 100 % WATER

compound | TOTAL BILIRUBIN
CNC1=Nc2ccc(Cl)cc2C(c2ccccc2)=[N+]([O-])C1 [CHLORDIAZEPOXIDE] | 0.2 mg/dL
O=c1[nH]c(=O)n(C2CCCO2)cc1F (stereo unspecified) [TEGAFUR] | 0.22 mg/dL
CCCC(C)C1(CC)C(=O)NC(=O)NC1=O (stereo unspecified) [PENTOBARBITAL] | 0.18 mg/dL
CN(C)CCC=C1c2ccccc2CCc2ccccc21 [AMITRIPTYLINE] | 0.17 mg/dL
C#Cc1cccc(Nc2ncnc3cc(OCCOC)c(OCCOC)cc23)c1 [ERLOTINIB] | 0.55 mg/dL
NC12CC3CC(CC(C3)C1)C2 [AMANTADINE] | 0.17 mg/dL
CCN(C(C)=O)c1cccc(-c2ccnc3c(C#N)cnn23)c1 [ZALEPLON] | 0.17 mg/dL
NC(=O)c1cccnc1 [NIACINAMIDE] | 0.13 mg/dL
CCN(CC)CCOC(=O)C1(C2CCCCC2)CCCCC1 [DICYCLOMINE] | 1.13 mg/dL
CCN(CC)CCNC(=O)c1ccc(N)cc1 [PROCAINAMIDE] | 0.97 mg/dL
CN(C)C(=O)Oc1cccc([N+](C)(C)C)c1.[Br-] [NEOSTIGMINE BROMIDE] | 0.18 mg/dL

---

- Species: Rattus norvegicus
- assay-summary: DrugMatrix - Regimen: Daily Repeat
- Type: toxicity, organism-based, Sprague-Dawley
- Design: regimen Daily Repeat, gender Male, age 6-8 weeks
- experimental-setup: in vivo, po, 0 mg/kg, 120 h, tissue Plasma, route oral GAVAGE, dose level Control, time 5 day, vehicle .5 % CMC

compound | output-unit | CREATININE
CN(C)CCN(Cc1cccs1)c1ccccn1 | mg/dL | 0.5
C[C@@H]1O[C@@H](O[C@H]2C[C@@H](O)[C@]3(CO)[C@H]4[C@H](O)C[C@]5(C)[C@@H](C6=CC(=O)OC6)CC[C@]5(O)[C@@H]4CC[C@]3(O)C2)[C@H](O)[C@H](O)[C@H]1O | mg/dL | 0.2
C[C@@](Cc1ccc(O)c(O)c1)(NN)C(=O)O.O | mg/dL | 0.37
COc1ccc2c(c1OC)C(=O)O[C@@H]2[C@H]1c2c(cc3c(c2OC)OCO3)CCN1C | mg/dL | 0.57
CCCNC(=O)NS(=O)(=O)c1ccc(Cl)cc1 [CHLORPROPAMIDE] | mg/dL | 0.6

---

- Species: Rattus norvegicus
- assay-summary: DrugMatrix - Regimen: Daily Repeat
- Format: toxicity, organism-based, Sprague-Dawley
- Design: regimen Daily Repeat, gender Male, age 6-8 weeks
- experimental-setup: in vivo, po, 0 mg/kg, 72 h, tissue Plasma, route oral GAVAGE, dose level Control, time 3 day, vehicle .5 % CMC
value-type: ASPARTATE AMINOTRANSFERASE (u/L)

molecule | result-value
COc1cc(OC)c(C(=O)CCCN2CCCC2)c(OC)c1 [BUFLOMEDIL] | 89.5
CCCCC1=NC2(CCCC2)C(=O)N1Cc1ccc(-c2ccccc2-c2nnn[nH]2)cc1 [IRBESARTAN] | 86.33
COc1ccc2c(c1OC)C(=O)O[C@@H]2[C@H]1c2c(cc3c(c2OC)OCO3)CCN1C [NOSCAPINE] | 68
NC(=O)N1c2ccccc2CC(=O)c2ccccc21 [OXCARBAZEPINE] | 82.17
CN1C(=O)CN=C(c2ccccc2)c2cc([N+](=O)[O-])ccc21 [NIMETAZEPAM] | 62.83

Data origin: ChEMBL document CHEMBL3885881
